The reader will find reported Viability %, Caco-2, 1st concentration values listed item by item below.
system: human colon cancer (Caco-2) cell line; test: cells; assay type: cell-based; details: Conc.: 5a 13.45, 5d 12.64, 5e 12.29, 5f 11.81, 7a 12.72, 7f 11.24, DOX 11.50
Write it as a number; the unit % goes unstated.

Some solved entries appear below for comparison.
>  <record.smiles>
COc1ccc(Nc2n[nH]c(N=Cc3ccc(N4CCCCC4)cc3)c2C(=O)Nc2ccc(Cl)cc2)cc1

>  <Viability %, Caco-2, 1st concentration, %>
89.43

$$$$
>  <record.smiles>
COc1ccc(Nc2n[nH]c(/N=C/c3ccc(N4CCCCC4)cc3)c2C(=O)Nc2ccccc2)cc1

>  <Viability %, Caco-2, 1st concentration, %>
70.71

$$$$
>  <record.smiles>
O=C(Nc1ccccc1)c1c(Nc2ccccc2)n[nH]c1N=Cc1ccc(N2CCCCC2)cc1

>  <Viability %, Caco-2, 1st concentration, %>
82.93

$$$$
>  <record.smiles>
COc1ccc(Nc2n[nH]c(/N=C/c3ccc(N4CCCCC4)cc3)c2C(=O)Nc2ccc(C)cc2)cc1

>  <Viability %, Caco-2, 1st concentration, %>
70.21

$$$$
>  <record.smiles>
Cc1c(C=Nc2[nH]nc(Nc3ccccc3)c2C(=O)Nc2ccccc2)c(=O)n(-c2ccccc2)n1C

>  <Viability %, Caco-2, 1st concentration, %>
70.21

$$$$

Now turn to the next compound.
Item under review: COc1ccc(Nc2n[nH]c(N=Cc3c(C)n(C)n(-c4ccccc4)c3=O)c2C(=O)Nc2ccc(Cl)cc2)cc1 . Reported Viability %, Caco-2, 1st concentration?
81.68

---

The reader will find reported Caspase-3 level, Colon (Caco-2) values listed item by item below.
system: caspase-3; assay: Caspase-3 ELISA in treated Caco-2 cells; assay type: cell-based, human; conditions: DMSO control 97.06 ± 0.14
Write it as a number; the unit pg/mL goes unstated.

Some solved entries appear below for comparison.
>  <molecule>
COc1ccc(Nc2n[nH]c(/N=C/c3ccc(N4CCCCC4)cc3)c2C(=O)Nc2ccc(C)cc2)cc1 [5e]

>  <tgt>
caspase-3

>  <recorded.number>
315.45

$$$$
>  <molecule>
O=C(Nc1ccccc1)c1c(Nc2ccccc2)n[nH]c1N=Cc1ccc(N2CCCCC2)cc1 [5a]

>  <tgt>
caspase-3

>  <recorded.number>
208.68

$$$$
>  <molecule>
COc1ccc(Nc2n[nH]c(N=Cc3ccc(N4CCCCC4)cc3)c2C(=O)Nc2ccc(Cl)cc2)cc1 [5f]

>  <tgt>
caspase-3

>  <recorded.number>
266.92

$$$$
>  <molecule>
Cc1c(C=Nc2[nH]nc(Nc3ccccc3)c2C(=O)Nc2ccccc2)c(=O)n(-c2ccccc2)n1C [7a]

>  <tgt>
caspase-3

>  <recorded.number>
363.98

$$$$
>  <molecule>
COc1ccc(Nc2n[nH]c(/N=C/c3ccc(N4CCCCC4)cc3)c2C(=O)Nc2ccccc2)cc1 [5d]

>  <tgt>
caspase-3

>  <recorded.number>
242.65

$$$$

Item: COc1ccc(Nc2n[nH]c(N=Cc3c(C)n(C)n(-c4ccccc4)c3=O)c2C(=O)Nc2ccc(Cl)cc2)cc1 [7f] Test system: caspase-3 Read-out: Caspase-3 level, Colon (Caco-2) Value: ?
276.62

---

tested on: human colon cancer (Caco-2) cell line; assay: cells; type: cell-based; settings: Homo sapiens, Caco-2; 48 h, MTT; mean ± SE; read-out: Cytotoxic activity IC50, Colon (Caco-2)
The reader will find reported IC50 values listed item by item below.
Write it as a number; the unit µM goes unstated.

Some solved entries appear below for comparison.
>  <record.smiles>
COc1ccc(Nc2n[nH]c(N=Cc3ccc(N4CCCCC4)cc3)c2C(=O)Nc2ccc(Cl)cc2)cc1

>  <units.of.measure>
µM

>  <IC50>
62

$$$$
>  <record.smiles>
COc1ccc(Nc2n[nH]c(/N=C/c3ccc(N4CCCCC4)cc3)c2C(=O)Nc2ccccc2)cc1

>  <units.of.measure>
µM

>  <IC50>
62.3

$$$$
>  <record.smiles>
COc1ccc(Nc2n[nH]c(/N=C/c3ccc(N4CCCCC4)cc3)c2C(=O)Nc2ccc(C)cc2)cc1

>  <units.of.measure>
µM

>  <IC50>
41

$$$$
>  <record.smiles>
COc1ccc(Nc2n[nH]c(N=Cc3c(C)n(C)n(-c4ccccc4)c3=O)c2C(=O)Nc2ccc(Cl)cc2)cc1

>  <units.of.measure>
µM

>  <IC50>
49

$$$$
>  <record.smiles>
O=C(Nc1ccccc1)c1c(Nc2ccccc2)n[nH]c1N=Cc1ccc(N2CCCCC2)cc1

>  <units.of.measure>
µM

>  <IC50>
60.3

$$$$

Now turn to the next compound.
Item under review: Cc1c(C=Nc2[nH]nc(Nc3ccccc3)c2C(=O)Nc2ccccc2)c(=O)n(-c2ccccc2)n1C . Reported IC50?
42.4

---

experiment: Cytotoxic activity, MTT assay, normal lung (WI-38); type: cell-based; conditions: human, Viability %, WI-38, 3rd concentration
outcome.measure: viability at 48 h (%)
Write it as a number; the unit % goes unstated.

Item under review: COc1cccc2c1C(=O)c1c(O)c3c(c(O)c1C2=O)C[C@@](O)(C(=O)CO)C[C@@H]3O[C@H]1C[C@H](N)[C@H](O)[C@H](C)O1 [Doxorubicin, reference compound] . Reported viability at 48 h?
62.3

---

system: α-glucosidase; assay: α-Glucosidase inhibition (anti-diabetic); type: biochemical; conditions: equal concentrations (1000 µg/mL); mean ± SE
The reader will find reported Inhibition (%) α-Glucosidase values listed item by item below.
Write it as a number; the unit % goes unstated.

Some solved entries appear below for comparison.
>  <compound>
Cc1ccc(NC(=O)c2c(Nc3ccccc3)n[nH]c2N=Cc2c(C)nn(-c3ccccc3)c2Cl)cc1 [6b]

>  <units.of.measure>
%

>  <Inhibition (%) α-Glucosidase>
17.96

$$$$
>  <compound>
COc1ccc(Nc2n[nH]c(/N=C/c3ccc(N4CCCCC4)cc3)c2C(=O)Nc2ccccc2)cc1 [5d]

>  <units.of.measure>
%

>  <Inhibition (%) α-Glucosidase>
27.84

$$$$
>  <compound>
Cc1c(C=Nc2[nH]nc(Nc3ccccc3)c2C(=O)Nc2ccc(Cl)cc2)c(=O)n(-c2ccccc2)n1C [7c]

>  <units.of.measure>
%

>  <Inhibition (%) α-Glucosidase>
15.41

$$$$

Item: Cc1ccc(NC(=O)c2c(Nc3ccccc3)n[nH]c2N=Cc2c(C)n(C)n(-c3ccccc3)c2=O)cc1 [7b] Test system: α-glucosidase Read-out: Inhibition (%) α-Glucosidase Value: ?
15.38

---

assay: Cytotoxic activity, MTT assay, normal lung (WI-38); type: cell-based; conditions: human, Viability %, WI-38, 4th concentration
outcome.measure: viability at 48 h
Please provide the amount together with its unit, number first.

Item under review: COc1cccc2c1C(=O)c1c(O)c3c(c(O)c1C2=O)C[C@@](O)(C(=O)CO)C[C@@H]3O[C@H]1C[C@H](N)[C@H](O)[C@H](C)O1 [Doxorubicin, reference compound] . Reported viability at 48 h?
52.7%

---

The reader will find reported Inhibition (%) α-Glucosidase values listed item by item below.
tested on: α-glucosidase; assay: α-Glucosidase inhibition (anti-diabetic); type: biochemical; conditions: equal concentrations (1000 µg/mL); mean ± SE
Write it as a number; the unit % goes unstated.

Some solved entries appear below for comparison.
>  <compound>
Cc1nn(-c2ccccc2)c(Cl)c1C=Nc1[nH]nc(Nc2ccccc2)c1C(=O)Nc1ccc(Cl)cc1

>  <tgt>
α-glucosidase

>  <units.of.measure>
%

>  <recorded.number>
17.99

$$$$
>  <compound>
COc1ccc(Nc2n[nH]c(/N=C/c3ccc(N4CCCCC4)cc3)c2C(=O)Nc2ccc(C)cc2)cc1

>  <tgt>
α-glucosidase

>  <units.of.measure>
%

>  <recorded.number>
27.37

$$$$
>  <compound>
Cc1nn(-c2ccccc2)c(Cl)c1C=Nc1[nH]nc(Nc2ccccc2)c1C(=O)Nc1ccccc1

>  <tgt>
α-glucosidase

>  <units.of.measure>
%

>  <recorded.number>
15.35

$$$$
>  <compound>
C[C@H]1O[C@H](O[C@H]2[C@H](O)[C@@H](O)[C@@H](O[C@H]3[C@H](O)[C@@H](O)C(O)O[C@@H]3CO)O[C@@H]2CO)[C@H](O)[C@@H](O)[C@@H]1N[C@H]1C=C(CO)[C@@H](O)[C@H](O)[C@H]1O (stereo partly shown) [Acarbose, reference compound]

>  <tgt>
α-glucosidase

>  <units.of.measure>
%

>  <recorded.number>
53.94

$$$$
>  <compound>
COc1ccc(Nc2n[nH]c(N=Cc3c(C)n(C)n(-c4ccccc4)c3=O)c2C(=O)Nc2ccccc2)cc1

>  <tgt>
α-glucosidase

>  <units.of.measure>
%

>  <recorded.number>
15.61

$$$$

Item under review: O=C(Nc1ccc(Cl)cc1)c1c(Nc2ccccc2)n[nH]c1/N=C/c1ccc(N2CCCCC2)cc1 . Reported Inhibition (%) α-Glucosidase?
15.43

Next: COc1ccc(Nc2n[nH]c(N=Cc3c(C)nn(-c4ccccc4)c3Cl)c2C(=O)Nc2ccccc2)cc1
15.64
